Cited source for all entries: patent US10137210B2

Target: Aβ(1-40) fibrils (Homo sapiens (Human))
Sequence (P05067 672-711): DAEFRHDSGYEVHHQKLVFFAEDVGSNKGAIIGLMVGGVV
Assay: [N-methyl-11C]BTA-1 binding assay with Aβ(1-40) fibrils
Details: Table 1, upper part; read-out: Ki (nM) to Aβ fibrils
ENDPOINT: Ki (nM)
Numeric answer only, unit nM assumed.

Query string: Indicate its recorded Ki; the compound in question is "COc1ccc2nc(-c3ccc(N[11CH3])cc3)sc2c1"
Result string: 5.7

Query string: Report Ki for "COc1ccc2nc(-c3ccc(N(C)[11CH3])cc3)sc2c1"
Result string: 2.3

====

Assay: physchem
Task for the reader: assign each of the following compounds its reported logP.
Answer as a number with no unit attached.

Query string: Let me know recorded logP for "COc1ccc2nc(-c3ccc(N[11CH3])cc3)sc2c1" , thanks.
Result string: 2.7

Query string: Note logP for the compound shown: "[11CH3]Nc1ccc(-c2nc3ccccc3s2)cc1"
Result string: 2.7

Query string: // fetch logP given entry "COc1ccc2nc(-c3ccc(N(C)[11CH3])cc3)sc2c1"
Result string: 3.3

Query string: Read the entry "Cc1ccc2nc(-c3ccc(N(C)[11CH3])cc3)sc2c1" and write its reported logP.
Result string: 3.9

Query string: Return the recorded logP value; entry: "Nc1ccc(-c2nc3ccc(O)cc3s2)cc1[125I]"
Result string: 1.65

Query string: Respond only with logP recorded for "Nc1ccc(-c2nc3ccccc3s2)cc1[125I]"
Result string: 3.17

====

Experiment: In vivo brain uptake and retention in mice
Set-up: species or system mouse
Conditions: 2 min, 11C-labeled compound
Excerpt: In Table 1 below are five different ^11C-labeled BTA derivatives where their in vitro binding properties, log P values, and in vivo brain uptake and retention properties in mice have been determined.
ENDPOINT: Mouse Brain Uptake @ 2 min (% ID/g * kg)
Numeric only. Scale: % ID/g * kg

Query string: Tell me measured Mouse Brain Uptake @ 2 min for "COc1ccc2nc(-c3ccc(N(C)[11CH3])cc3)sc2c1" please.
Result string: 0.32

Query string: Hello, please tell me recorded Mouse Brain Uptake @ 2 min for this one: "COc1ccc2nc(-c3ccc(N[11CH3])cc3)sc2c1"
Result string: 0.43

Query string: Given "Cc1ccc2nc(-c3ccc(N(C)[11CH3])cc3)sc2c1" , respond with its Mouse Brain Uptake @ 2 min.
Result string: 0.15

Query string: Read the entry "Cc1ccc2nc(-c3ccc(N[11CH3])cc3)sc2c1" and write its reported Mouse Brain Uptake @ 2 min.
Result string: 0.32

Query string: Check the records and state Mouse Brain Uptake @ 2 min for "[11CH3]Nc1ccc(-c2nc3ccccc3s2)cc1"
Result string: 0.44

====

Assay: In vivo brain uptake and retention in mice
Set-up: species or system mouse
Conditions: 30 min, 11C-labeled compound
ENDPOINT: Mouse Brain Uptake @ 30 min (% ID/g * kg)
The answer is to be given in % ID/g * kg; state only the numeric part.

Query string: Could you please provide reported Mouse Brain Uptake @ 30 min for "COc1ccc2nc(-c3ccc(N(C)[11CH3])cc3)sc2c1" ? Thanks!
Result string: 0.42

Query string: Tell us which Mouse Brain Uptake @ 30 min value is on record for "Cc1ccc2nc(-c3ccc(N[11CH3])cc3)sc2c1"
Result string: 0.17

Query string: // fetch Mouse Brain Uptake @ 30 min given entry "[11CH3]Nc1ccc(-c2nc3ccccc3s2)cc1"
Result string: 0.057

Query string: Let me know recorded Mouse Brain Uptake @ 30 min for "Cc1ccc2nc(-c3ccc(N(C)[11CH3])cc3)sc2c1" , thanks.
Result string: 0.16

Query string: Given "COc1ccc2nc(-c3ccc(N[11CH3])cc3)sc2c1" , respond with its Mouse Brain Uptake @ 30 min.
Result string: 0.094
